target: DRB5*0101 (DR2w2a) (Homo sapiens, UniProt P01903+Q30154); construct: used as sources of human HLA class II molecules; endogenous in cells; host or cells: GM3107 (EBV-transformed homozygous B cell line); test: Class II peptide-binding assay, DR2w2a (DR2w2B2); details: read-out: DR2w2B2 nM (In IC50 Format); purified HLA DR2w2β2;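 note: competitive binding assay: unlabeled peptide inhibiting binding of a radiolabeled probe peptide to purified DR molecules at pH 7.0, IC50 approximating Kd, lower means stronger binding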
Square brackets hold non-standard residues; d marks the D form. Peptide text beside a SMILES is read from it.
Quick list: IC50 per entry.
Just the number please, in nM, no unit attached.

A selection of reference data follows.
Q. What measured IC50 goes with CC[C@H](C)[C@H](NC(=O)[C@@H](NC(=O)[C@@H](NC(=O)[C@H](CCC(=O)O)NC(=O)[C@H](CCCNC(=N)N)NC(=O)CN)[C@@H](C)O)C(C)C)C(=O)N[C@@H](CCC(=O)O)C(=O)N[C@@H](Cc1ccc(O)cc1)C(=O)N[C@@H](CC(C)C)C(=O)N[C@H](C(=O)N[C@@H](CO)C(=O)N[C@@H](Cc1ccccc1)C(=O)NCC(=O)N[C@H](C(=O)N[C@@H](Cc1c[nH]c2ccccc12)C(=O)O)C(C)C)C(C)C [Peptide 802.04] ?
A. 1330

Q. # IC50 lookup, item C[C@H](NC(=O)[C@H](C)NC(=O)[C@H](C)NC(=O)[C@H](Cc1ccc(O)cc1)NC(=O)[C@H](C)NC(=O)[C@@H](C)N)C(=O)N[C@@H](C)C(=O)N[C@H](C(=O)N[C@@H](C)C(=O)N[C@@H](CCCCN)C(=O)N[C@@H](C)C(=O)N[C@@H](C)C(=O)N[C@H](C)C(N)=O)[C@@H](C)O [Peptide 762.02] (H-[dA]AYAAAATAKAA[dA]-NH2)
A. 105

Read the next record carefully.
Q. IC50 for CC(C)C[C@H](NC(=O)[C@@H](NC(=O)[C@@H](NC(=O)[C@H](CCC(N)=O)NC(=O)[C@H](CCCCN)NC(=O)[C@H](CC(=O)O)NC(=O)[C@H](Cc1ccccc1)NC(=O)[C@@H](CCCNC(=N)N)NC(=O)[C@H](C)NC(=O)[C@H](N)Cc1ccc(O)cc1)[C@@H](C)O)[C@@H](C)O)C(=O)N[C@@H](CCCCN)C(=O)N[C@@H](C)C(=O)N[C@@H](C)C(=O)N[C@H](C)C(=O)O [Peptide 781.19] (H-[dY]A[dR]FDKQTTLKAA[dA]-OH) ?
A. 3330

====

biological target: DRB10404 (DR4w14) (Homo sapiens, UniProt P01903+P01911, A100R/A169T/F76Y/I96L/K127E/L162R/M171V/N62H/P40V/Q125Y/R42H/S133A/S149N/S66Y/V209L/W38E); construct: used as sources of human HLA class II molecules; endogenous in cells; host or cells: BIN40 (EBV-transformed homozygous B cell line); test: Class II peptide-binding assay, DR4w14; settings: read-out: DR4w14 nM; Table VIII, In IC50 Format;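 note: unlabeled peptides compete with a radiolabeled probe for binding to affinity-purified HLA-DR, neutral pH, class II amount titrated to bind a small fraction of label, IC50 approximates Kd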
Square brackets hold non-standard residues; d marks the D form. Peptide text beside a SMILES is read from it.
Measure: IC50 (nM)
Hi! Could you send only the number? It should be in nM, unit omitted.

Recorded results for 2 compounds are shown here.
Q. For the compound shown here, CC(C)C[C@H](NC(=O)[C@@H](NC(=O)[C@H](C)NC(=O)[C@H](C)NC(=O)[C@H](CCCCN)NC(=O)[C@@H](NC(=O)[C@H](Cc1ccccc1)NC(=O)[C@H](CCCCN)NC(=O)[C@@H](C)N)C(C)C)[C@@H](C)O)C(=O)N[C@@H](CCCCN)C(=O)N[C@@H](C)C(=O)N[C@@H](C)C(=O)N[C@H](C)C(N)=O [Peptide 909.02] (H-[dA]KFVKAATLKAA[dA]-NH2) , give the reported IC50.
A. 33.3

Q. Field request: IC50 | item: C[C@H](NC(=O)[C@H](C)NC(=O)[C@H](Cc1ccccc1)NC(=O)[C@H](C)NC(=O)[C@@H](C)N)C(=O)N[C@@H](C)C(=O)N[C@@H](C)C(=O)N1CCC[C@H]1C(=O)N[C@@H](CCCCN)C(=O)N[C@@H](C)C(=O)N[C@@H](C)C(=O)N[C@@H](C)C(=O)N[C@H](C)C(N)=O [Peptide 828.05] (H-[dA]AFAAAAPKAAA[dA]-NH2)
A. 6250

---
Q. Looking for the measured IC50 of CC(C)C[C@H](NC(=O)[C@@H](NC(=O)[C@@H](NC(=O)[C@H](CCC(N)=O)NC(=O)[C@H](CO)NC(=O)[C@H](CCC(N)=O)NC(=O)[C@H](Cc1ccccc1)NC(=O)[C@H](C)NC(=O)[C@H](C)NC(=O)[C@H](N)Cc1ccc(O)cc1)[C@@H](C)O)[C@@H](C)O)C(=O)N[C@@H](CCCCN)C(=O)N[C@@H](C)C(=O)N[C@@H](CCCCN)C(=O)N[C@@H](C(N)=O)[C@H](C)O [Peptide 858.04] (H-[dY]AAFQSQTTLKAK[dT]-NH2) , can you help?
A. 15.6
